- Study Target: Cannabinoid receptor 2 (Homo sapiens)
- Sequence (P34972 whole entry): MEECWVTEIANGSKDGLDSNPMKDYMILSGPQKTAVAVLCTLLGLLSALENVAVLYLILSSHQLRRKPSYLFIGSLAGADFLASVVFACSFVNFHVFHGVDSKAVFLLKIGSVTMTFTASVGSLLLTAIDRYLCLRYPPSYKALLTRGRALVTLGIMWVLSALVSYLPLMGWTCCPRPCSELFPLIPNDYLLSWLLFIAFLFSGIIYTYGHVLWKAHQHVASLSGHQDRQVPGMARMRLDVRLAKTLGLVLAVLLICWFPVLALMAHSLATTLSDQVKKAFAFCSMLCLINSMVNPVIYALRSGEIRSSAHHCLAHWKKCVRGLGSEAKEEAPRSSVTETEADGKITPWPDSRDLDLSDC
- Experiment: Agonist activity at human CB2 receptor transfected in CHO cells by [35]GTPgamma binding assay
Measured Attribute: EC50 (µM)
Hi! Could you send only the number? It should be in µM, unit omitted.

Q) // lookup EC50 for O=C(c1cccc(C(F)(F)F)c1)c1nccc2ccccc12
A) 5.01
